Where these numbers come from: the RNAGym collection of RNA variant scans (doi:10.7554/elife.80360)

B1: CPEB3 Ribozyme (parent)
chain: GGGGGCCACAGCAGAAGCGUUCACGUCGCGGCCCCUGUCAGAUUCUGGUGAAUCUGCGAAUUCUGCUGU

# Variants of: B1
# Assay Info: self-cleavage, relative activity (ratio to wild type); higher = more cleavage; co-transcriptional
Metric: self-cleavage
Returns: the value as a bare number; no unit string appended.

Known self-cleavage results, listed for orientation:
In [3]: df
Out[3]:
                            record_sequence         metric  quantitative_result
0  GGGGGCCACAGCAGAAGCGUUCACGUCGCGGCCCCUGUCAGAUUCUGGUGAAUCCGCGAAUUCUGCUGA [U55C U69A]  self-cleavage                0.971
1  GGGGGCCACAGCAGAAACGUUCACGUCGCGCCCCCUGUCAGAUUCUGGUGAAUCUGCGAAUUCUGCUGU [G17A G31C]  self-cleavage                0.135
2  GGGGGCCACAGCAGAGGCGUUCACGUCGCGGCCCCUGUCAGAUUCUGGUGAAUCUGCGAAUUCUGCUGG [A16G U69G]  self-cleavage                 1.04
3  GGCGGCCACAGCAGAAGCGUUCACGUCGCGGCCCCUGUCAGAUUCUGGUGAAUCUGCGACUUCUGCUGU [G3C A60C]  self-cleavage               0.0624
4  GGGGGCCACAGCAGAAGCGUUCACGUCGCGGCCCCUGUCAGAUUCGGGUGAAUCUGCGAAUUCUGGUGU [U46G C66G]  self-cleavage                0.956
5  GGGGGCCACAGAAGAAGCGUUCACGUCGCGGCACCUGUCAGAUUCUGGUGAAUCUGCGAAUUCUGCUGU [C12A C33A]  self-cleavage                0.553
6  GGGGGCCACAGCAGAAGCGUUCGCGUCGCGGCCCCUGUCAGAUACUGGUGAAUCUGCGAAUUCUGCUGU [A23G U44A]  self-cleavage                0.923
7  GGGGGCCACAGCAGAAGCGUUCACGUCGCGGCCCCUGUCAGAUUCUGGUGAAUCUGCUAAUGCUGCUGU [G58U U62G]  self-cleavage                 1.01
8  GGGAGCCACAGCAGAAGCGUUCACGUCGCGGCCCCUGUCAGAUUCUGGUGAAUCGGCGAAUUCUGCUGU [G4A U55G]  self-cleavage                 0.52
9  UGGGGCCACAGCAGAAGCGUUCACGUCGCGGCCCCUAUCAGAUUCUGGUGAAUCUGCGAAUUCUGCUGU [G1U G37A]  self-cleavage               0.0613

Here is the next item to consider.
**Query** self-cleavage lookup needed for GGGGGCCACAGCAGAAGCGUUCACGUCGCGGCCCCUGUCAGAUUCUGGUGAGUCUCCGAAUUCUGCUGU [A52G G56C] , thanks.
**Result** 0.819
